Source listed as the supplement of paper PMC10126150.

# Tested on: ATP;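 note: ATP exposure 15 min at 22 °C before imaging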
# Protocol: switch fluorescence ratio, 500 uM ATP over buffer (Cy3 cluster intensity, sum of 5 cycles each) (fold (ratio)); higher = stronger signal-on switching upon ATP binding; sequences stand for … in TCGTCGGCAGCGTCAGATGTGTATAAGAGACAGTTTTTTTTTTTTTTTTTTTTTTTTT…TC
# Assay Conditions: aptamer strand: ATP DNA aptamer (quencher-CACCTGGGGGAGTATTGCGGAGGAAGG + anchor), 100 nM annealed; ATP concentration: 500 uM
Measure Name: switch fluorescence ratio
One number for each entry.

1. CGTTGATAAG    0.997

Could I get switch fluorescence ratio for every one of these entries?
1. TCGGAGTGGC
2. CAGGAAGGAT
3. ACGATAGAGG
4. GGGATATATT
5. GTTAGGGTAG

Response given:
1: 1.2; 2: 0.994; 3: 1.14; 4: 0.991; 5: 0.992

Challenge: Which switch fluorescence ratio value is on record for CATGTTTTTC ?
Response given: 0.982

* * *

# Tested on: ATP;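 note: ATP exposure 15 min at 22 °C before imaging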
# Protocol: switch fluorescence ratio, 500 uM ATP over buffer (Cy3 cluster intensity, sum of 5 cycles each) (fold (ratio)); higher = stronger signal-on switching upon ATP binding; sequences stand for … in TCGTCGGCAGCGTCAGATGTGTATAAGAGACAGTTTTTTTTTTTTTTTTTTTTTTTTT…TC
# Assay Conditions: aptamer strand: ATP DNA aptamer (quencher-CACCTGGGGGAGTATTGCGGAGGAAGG + anchor), 100 nM annealed; ATP concentration: 500 uM
Measure Name: switch fluorescence ratio
Numbers only.

Record excerpt, results attached:
1) ATTCTGCGGA    1.01
2) AGATTGGTTG    0.985
3) ACTTGAAGGT    1.02

Could you tell me switch fluorescence ratio for each of these sequences? They are listed below.
1. GGTTTGTTGT
2. ATAAATGCGG

Response given:
1. 0.972
2. 1.02

Required: switch fluorescence ratio, one value per sequence below.
1. TCGTTTGGGT
2. AAAGGACGGG
3. GCATACAGGA
4. TATTGAGGAG
5. AATCGCGGCT
6. GGGGGTATTT
7. ATTTTATGGG
8. TAATGGTCTT

Response given:
1. 0.978
2. 1.02
3. 1.02
4. 1.01
5. 1.01
6. 1
7. 0.999
8. 1.02

Go through the list and state switch fluorescence ratio for each entry.
1. CGATCGAGGA
2. GGGGGTGGAT
3. GCTGGTTAAA

Response given:
[0.991, 1, 0.978]

Hey, quick one: what's switch fluorescence ratio for each of these?
1. GTTTTCCGTC
2. AGATATGTTT
3. GGGCGGGTCT
4. CGGGTCGGCC
5. TTGGTCCGTT

Response given:
1: 1; 2: 0.986; 3: 1.01; 4: 0.997; 5: 1.02

* * *

# Tested on: ATP;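 note: ATP exposure 15 min at 22 °C before imaging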
# Protocol: switch fluorescence ratio, 500 uM ATP over buffer (Cy3 cluster intensity, sum of 5 cycles each) (fold (ratio)); higher = stronger signal-on switching upon ATP binding; sequences stand for … in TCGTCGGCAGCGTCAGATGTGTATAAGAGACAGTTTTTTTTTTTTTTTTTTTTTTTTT…TC
# Assay Conditions: aptamer strand: ATP DNA aptamer (quencher-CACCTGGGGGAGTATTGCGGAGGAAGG + anchor), 100 nM annealed; ATP concentration: 500 uM
I'd be grateful if you could share measured switch fluorescence ratio for these entries.
One number for each entry.

1) AAGCTTTTGT    0.985

Give switch fluorescence ratio for all sequences that follow.
1. GTTAGTTGGT
2. TTTAATTATT
3. GGACAGGTTT
4. ACCATGGGCT

Response given:
[0.993, 1.02, 0.978, 0.974]

* * *

Assign switch fluorescence ratio to each entry below.
# Tested on: ATP;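 note: ATP exposure 15 min at 22 °C before imaging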
# Protocol: switch fluorescence ratio, 500 uM ATP over buffer (Cy3 cluster intensity, sum of 5 cycles each) (fold (ratio)); higher = stronger signal-on switching upon ATP binding; sequences stand for … in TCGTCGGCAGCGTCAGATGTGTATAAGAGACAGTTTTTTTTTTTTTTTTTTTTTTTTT…TC
# Assay Conditions: aptamer strand: ATP DNA aptamer (quencher-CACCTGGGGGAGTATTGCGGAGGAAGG + anchor), 100 nM annealed; ATP concentration: 500 uM
One number for each entry.

1. TAAGAGGAGG    0.983

Below are 8 sequences. Give each one its switch fluorescence ratio.
1. GTTGATAGGA
2. TGGGATGTTG
3. GCGGGCCTTT
4. ATAATCGGTG
5. ACGGGGGTTA
6. AGTAAGACAG
7. TCAGGTTTTG
8. GTCCCGACTT

Response given:
[0.988, 1, 1.01, 0.981, 1.02, 0.986, 0.98, 1.01]

Below is a list of sequences. For each, state its recorded switch fluorescence ratio.
1. AGGGTCTCAT
2. TTGAGGGGGG
3. GATTTTCGCT
4. TGGTTGGGCT
5. CGTGACGGGG
6. TTAAACGTAG
7. GGTTGTGATA

Response given:
[1.02, 1.01, 0.971, 1.01, 0.978, 1, 0.999]

Challenge: Look up switch fluorescence ratio for this sequence: CAATTTTTAA
Response given: 0.98

* * *

Field: switch fluorescence ratio. Provide a value for each of the sequences that follow.
# System: ATP;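 note: ATP exposure 15 min at 22 °C before imaging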
# Protocol: switch fluorescence ratio, 500 uM ATP over buffer (Cy3 cluster intensity, sum of 5 cycles each) (fold (ratio)); higher = stronger signal-on switching upon ATP binding; sequences stand for … in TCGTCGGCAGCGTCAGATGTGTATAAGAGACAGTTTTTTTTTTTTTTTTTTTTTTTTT…TC
# Assay Conditions: aptamer strand: ATP DNA aptamer (quencher-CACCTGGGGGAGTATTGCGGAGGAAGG + anchor), 100 nM annealed; ATP concentration: 500 uM
Numbers only.

Examples from the recorded data:
1. AATGACTTAA    1.01
2. ACGATTTGGT    1
3. GGAGGAGAAT    1

# context switch: different sequence, same switch fluorescence ratio
Challenge: Quick one: switch fluorescence ratio for GGAGAGTCGG ?
Response given: 0.977

* * *

# Tested on: ATP;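 note: ATP exposure 15 min at 22 °C before imaging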
# Protocol: switch fluorescence ratio, 500 uM ATP over buffer (Cy3 cluster intensity, sum of 5 cycles each) (fold (ratio)); higher = stronger signal-on switching upon ATP binding; sequences stand for … in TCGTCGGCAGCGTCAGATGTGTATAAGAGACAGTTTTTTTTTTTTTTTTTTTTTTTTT…TC
# Assay Conditions: aptamer strand: ATP DNA aptamer (quencher-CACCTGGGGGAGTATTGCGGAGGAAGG + anchor), 100 nM annealed; ATP concentration: 500 uM
Measure Name: switch fluorescence ratio
One number for each entry.

Examples with their reported switch fluorescence ratio follow.
1. TAGATATGGT    0.989
2. GCGGGTTGGG    0.984
3. GTTAGTGTGC    0.984
4. GAGTAAGAGC    1.02

Record switch fluorescence ratio for all entries; do not skip any.
1. ACAGGCGCTT
2. TTATGAAAGC
3. AGGTCTCTTT
4. GCGTAAAAGG
5. GGTTGAATTG

Response given:
1. 1.01
2. 1.02
3. 0.982
4. 0.974
5. 0.974

* * *

# Test system: ATP;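 note: ATP exposure 15 min at 22 °C before imaging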
# Protocol: switch fluorescence ratio, 500 uM ATP over buffer (Cy3 cluster intensity, sum of 5 cycles each) (fold (ratio)); higher = stronger signal-on switching upon ATP binding; sequences stand for … in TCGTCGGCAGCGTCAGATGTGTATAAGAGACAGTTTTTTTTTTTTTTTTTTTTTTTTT…TC
# Assay Conditions: aptamer strand: ATP DNA aptamer (quencher-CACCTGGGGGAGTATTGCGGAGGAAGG + anchor), 100 nM annealed; ATP concentration: 500 uM
Measure Name: switch fluorescence ratio
Give bare numbers.

Below: 3 sequences and their reported switch fluorescence ratio.
1) TATTAGTAAT    1
2) GCGTGTGGTG    1.02
3) TTGTTAGGGG    0.986

Batch request: switch fluorescence ratio for each of the following sequences.
1. GGTGAGTTGG
2. TGGTTTACCA

Response given:
1: 0.977; 2: 0.994

* * *

Please respond with reported switch fluorescence ratio for every item in the list.
# System: ATP;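 note: ATP exposure 15 min at 22 °C before imaging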
# Protocol: switch fluorescence ratio, 500 uM ATP over buffer (Cy3 cluster intensity, sum of 5 cycles each) (fold (ratio)); higher = stronger signal-on switching upon ATP binding; sequences stand for … in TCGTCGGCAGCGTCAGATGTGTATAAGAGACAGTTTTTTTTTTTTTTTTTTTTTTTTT…TC
# Assay Conditions: aptamer strand: ATP DNA aptamer (quencher-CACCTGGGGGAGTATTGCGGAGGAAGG + anchor), 100 nM annealed; ATP concentration: 500 uM
Numbers only.

# count of solved cases: 3
1) GCTAGCTCAG    1.02
2) GATGGTTGAA    0.984
3) GGCTTGGGGA    1.01

Below are 5 sequences. Give each one its switch fluorescence ratio.
1. GACATTTCGT
2. AACGTAGTGT
3. ACGCTTTGCA
4. CGGGAGGGGA
5. GTGATTCGGG

Response given:
1: 0.992; 2: 1.01; 3: 0.987; 4: 1; 5: 0.972

Hi team, please reply with switch fluorescence ratio for each item in this list.
1. GCTTCGAGGG
2. GTGAAATAGG
3. CACGAGAAGG
4. GCACCAGGGG
5. TATTAGACTA
6. TCAGGGGGGA
7. GGTTAGGTCG
8. GGGAGCAAGG

Response given:
[0.968, 0.981, 1.03, 1.81, 1.02, 1, 1.06, 1.1]

State recorded switch fluorescence ratio for all listed sequences.
1. TGATACTGCT
2. AATGAGGGTC
3. GAGTGGGCTC
4. TGTTATGTGC

Response given:
1: 0.961; 2: 0.989; 3: 0.988; 4: 0.968
